B1: HDV Ribozyme (parent)
chain: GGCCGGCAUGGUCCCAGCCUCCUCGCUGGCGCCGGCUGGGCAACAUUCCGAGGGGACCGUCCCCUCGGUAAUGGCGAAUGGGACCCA

variants of: B1; assay: self-cleavage, relative activity (ratio to wild type); higher = more cleavage; co-transcriptional
Respond with met for self-cleavage values of 0.9 and above, not met for values below.

- variant description: "G53U C61U"
  label class: "met"
- variant description: "C14G C32G"
  label class: "not met"
- variant description: "C49G G50U"
  label class: "not met"
- variant description: "A45U G55C"
  label class: "met"
- variant description: "C26U G76C"
  label class: "not met"
- variant description: "G55C C86U"
  label class: "met"
- variant description: "C32U C62G"
  label class: "not met"
- variant description: "G6U C75G"
  label class: "not met"
- variant description: "G29U G73C"
  label class: "not met"
- variant description: "A16U C41A"
  label class: "not met"
- variant description: "G5U A87C"
  label class: "not met"

Entry source: the RNAGym collection of RNA variant scans (doi:10.7554/elife.80360)
